assayed_system: T1, HD-PTP(1–361;T145K) (human, UniProt Q9H3S7 1-361, T145K)
T1 construct: source: E. coli BL21(DE3) RIL, purified (Ni-NTA, gel filtration)
T1 sequence (looked up): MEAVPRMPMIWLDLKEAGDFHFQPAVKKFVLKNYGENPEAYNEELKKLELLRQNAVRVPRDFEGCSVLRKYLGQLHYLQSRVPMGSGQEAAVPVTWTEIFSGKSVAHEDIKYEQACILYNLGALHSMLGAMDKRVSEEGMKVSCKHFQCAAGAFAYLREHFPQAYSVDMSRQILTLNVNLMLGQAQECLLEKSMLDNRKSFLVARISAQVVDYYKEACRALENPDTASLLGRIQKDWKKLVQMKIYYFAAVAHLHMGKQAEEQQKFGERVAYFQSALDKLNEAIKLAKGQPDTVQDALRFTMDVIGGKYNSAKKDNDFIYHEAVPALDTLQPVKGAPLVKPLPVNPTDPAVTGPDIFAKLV
test_name: ITC; 0.5 mM peptide titrated into 50 μM protein; iTC200; 2°C as printed; 20 mM Tris-HCl (pH 7.5), 100 mM NaCl
condition_label: both partners purified
measured_endpoint: Kd

Recorded result, KEEEDDDMKELENWAGSM (peptide, UniProt Q9H444 207-224, looked up, CHMP4B, residues 207–224 (18-mer; the polypeptide terminates with Met224); also called CHMP4B peptide of 18-mer (residues 207–224); charged multivesicular body protein 4B; source: synthetic peptide, bought: Peptron (Korea)) [CHMP4B(207–224)] , Kd: < 8 µM
